These entries and their values trace back to PubChem BioAssay (NCI).

System: PC-3 prostate
Experiment: NCI-60 one-dose screen, 48 h
Settings: 10 µM unless noted
Compounds without any hit were thinned out: in the full panel of roughly 83,000, 20% have a hit. Activity calls are given as the source filed them. Rule for the calls: active = growth percent below 10; inactive = the rest.
Outcomes: 1 (yes) (active), 0 (no) (inactive)

1) COc1cccc2nc(Nc3ccc(NC(=O)c4ccc5ncccc5c4)cc3)ccc12 = 0 (no)
2) CCN(C(=O)c1cc2ncccc2[nH]1)[C@H]1CCC[C@@H](NCc2cccc(F)c2)C1 = 0 (no)
3) O=S(=O)(NCCNc1cc(-c2cn(-c3ccccc3)nc2-c2ccccc2)ccn1)c1ccc(F)cc1 = 0 (no)
4) Cc1cccc(-n2c(C)nc3ccc(NC(=O)NCCCl)cc3c2=O)c1 = 0 (no)
5) COc1cc(CCn2nnc3c(NCCCCO)ncnc32)cc(OC)c1 = 0 (no)
6) CCN1C(=O)N(CC)C2Nn3c(s/c(=C4\C(=O)N(C5CCCC5)c5ccccc54)c3=O)=NC21 (stereo not given) = 0 (no)
7) CC(CCc1ccccc1)NC(=O)c1n[nH]c(=O)c2ccccc12 (stereo not given) = 0 (no)
8) COc1cc(C2C=C(C)N=C3SC(C)=NN32)cc(OC)c1OC (stereo not given) = 0 (no)
9) Cc1cccc(NC(=O)c2sc3nc4c(cc3c2N)CCC4)c1C = 0 (no)
10) COc1cc(CNC(=O)CCSc2nc3ccccc3c(=O)n2Cc2cc(OC)c(OC)c(OC)c2)cc(OC)c1OC = 0 (no)
11) O=[N+]([O-])c1c(S(=O)(=O)O)cc2cc(S(=O)(=O)O)ccc2c1[N+](=O)[O-] = 0 (no)
12) COc1ccc(/C=C/C(=O)c2cc(OC)c(OC)c(OC)c2)cc1OCc1cn(Cc2ccc(F)cc2)nn1 = 0 (no)
13) Cc1cc2c(C(C)C)c(O)c(O)c(C=NCCCCC(=O)O)c2c(O)c1-c1c(C)cc2c(C(C)C)c(O)c(O)c(C=NCCCCC(=O)O)c2c1O = 0 (no)
14) CCOC(=O)C(Cc1ccccc1)n1c(O)c(C=Nc2ccc(C(=O)OCCN(CC)CC)cc2)sc1=O (stereo not given) = 0 (no)
15) N=C(N)c1ccc(-c2ccc(-c3ccc(Cl)cc3)o2)nc1 = 1 (yes)
16) COc1ccc(-c2nc3sccn3c2-c2ccnc(NCCCNS(=O)(=O)c3ccc4ccccc4c3)n2)cc1 = 0 (no)
17) COc1ccc(-c2nnc(COc3ccc(NS(=O)(=O)c4ccc(OC)cc4)cc3F)o2)cc1 = 0 (no)
18) CCC(=O)Oc1ccc2c(c1)CC[C@@H]1[C@@H]2CC[C@]2(C)C[C@H](OC(=O)CC)C[C@@H]12 = 0 (no)
19) C=CCc1cc(Cl)cc2c(OC(C)=O)c(C(C)=O)c(-c3ccccc3)nc12 = 0 (no)
20) CC(C)CCN(CCCNc1c2c(nc3ccccc13)CCCC2)CCC(C)C = 0 (no)
